Tested on: XIP peptide (Xip251-270) binding
Assay: XIP fragment 251-270 binding compounds – biochemical, small-molecule microarray, fluorescence 635/667 nm, 0.1 µg/mL protein, primary screen (AID 1182)
Details: fluorescent protein binding, 635 nm, higher = more signal, called active from +8 up or from −8 down
parameter measured: composite z-score
Just the number, please, no unit after it.

Worked cases, answers included:
smiles code: CCCC=C(CCC)[C@@H](NS(=O)(=O)CC)c1ccccc1
target or system: XIP peptide (Xip251-270) binding
composite z-score: -0.255
//
smiles code: C=CC[C@]1(C(=O)N(C)C)N=C(c2ccc(OCCCO)cc2)O[C@H]1c1ccccc1
target or system: XIP peptide (Xip251-270) binding
composite z-score: 0.39

Return composite z-score measured with XIP peptide (Xip251-270) binding given this compound: COCCCNC(=O)[C@@H]1c2ccccc2C(=O)N(Cc2cc(F)cc(C(F)(F)F)c2)[C@H]1c1ccc(CO)cc1 -0.0408
